Test system: Escherichia coli TOP10
Assay: shrunken log2 fold change of peptide-encoding DNA abundance (4.5 h post-induction vs induction); higher = less antimicrobial activity (less host growth inhibition)
Details: time post-induction: 4.5 h; library: site-saturation at positions 5, 18, 19, 20
assay endpoint: shrunken log2 fold change
Answers are plain numbers.

Previously resolved entries follow.
RRIRFRPPRLPRPRPRPLWVPRP :: 0.0127
RRIRDRPPRLPRPRPRPWHAPRP :: -0.134
RRIRTRPPRLPRPRPRPTHHPRP :: -0.0136
RRIRFRPPRLPRPRPRPVFIPRP :: -0.811
RRIRNRPPRLPRPRPRPSMFPRP :: -0.458

Fill in shrunken log2 fold change for each of the 7 sequences listed.
1. RRIRFRPPRLPRPRPRPNFIPRP
2. RRIRRRPPRLPRPRPRPWIKPRP
3. RRIRWRPPRLPRPRPRPMRRPRP
4. RRIRSRPPRLPRPRPRPTRAPRP
5. RRIRSRPPRLPRPRPRPNKPPRP
6. RRIRARPPRLPRPRPRPNDVPRP
7. RRIRPRPPRLPRPRPRPAQWPRP

Result:
-0.308
0.0892
0.481
0.738
-0.23
0.128
0.384

Fill in shrunken log2 fold change for each of the 6 sequences listed.
1. RRIRRRPPRLPRPRPRPNSRPRP
2. RRIRMRPPRLPRPRPRPNMMPRP
3. RRIRFRPPRLPRPRPRPCTMPRP
4. RRIRCRPPRLPRPRPRPQLVPRP
5. RRIRIRPPRLPRPRPRPGLWPRP
6. RRIRLRPPRLPRPRPRPQMNPRP

Result:
-0.0456
-0.0235
-0.462
0.569
0.0804
-0.507

Fill in shrunken log2 fold change for each of the 4 sequences listed.
1. RRIRYRPPRLPRPRPRPWNRPRP
2. RRIRVRPPRLPRPRPRPISNPRP
3. RRIRPRPPRLPRPRPRPHMYPRP
4. RRIRARPPRLPRPRPRPNFLPRP

Result:
[-0.0135, -0.512, -0.316, 0.0215]

Fill in shrunken log2 fold change for each of the 7 sequences listed.
1. RRIRCRPPRLPRPRPRPANQPRP
2. RRIRNRPPRLPRPRPRPKVVPRP
3. RRIRLRPPRLPRPRPRPSKCPRP
4. RRIRPRPPRLPRPRPRPQMDPRP
5. RRIRTRPPRLPRPRPRPLFAPRP
6. RRIRPRPPRLPRPRPRPMYFPRP
7. RRIRHRPPRLPRPRPRPAAVPRP

Result:
1. -0.137
2. 0.0279
3. -0.0487
4. -0.395
5. 0.228
6. -0.0431
7. 0.0752

Fill in shrunken log2 fold change for each of the 3 sequences listed.
1. RRIRVRPPRLPRPRPRPWCMPRP
2. RRIRGRPPRLPRPRPRPLEFPRP
3. RRIRYRPPRLPRPRPRPTYVPRP

Result:
-0.468
0.319
-0.0567

----------
For each record, write down the corresponding shrunken log2 fold change.
System: Escherichia coli TOP10
Experiment: shrunken log2 fold change of peptide-encoding DNA abundance (4.5 h post-induction vs induction); higher = less antimicrobial activity (less host growth inhibition)
Settings: time post-induction: 4.5 h; library: site-saturation at positions 5, 18, 19, 20
Numbers only.

Previously resolved entries follow.
RRIRKRPPRLPRPRPRPWYEPRP :: -0.0672
RRIRGRPPRLPRPRPRPSSSPRP :: -0.296
RRIRTRPPRLPRPRPRPTEKPRP :: 0.015
RRIRHRPPRLPRPRPRPDFDPRP :: 0.0484
RRIRDRPPRLPRPRPRPGWEPRP :: 0.00884

Fill in shrunken log2 fold change for each of the 3 sequences listed.
1. RRIRQRPPRLPRPRPRPKTVPRP
2. RRIRIRPPRLPRPRPRPIYNPRP
3. RRIRYRPPRLPRPRPRPCCLPRP

Result:
1. -0.093
2. -1.18
3. -0.203

----------
System: Escherichia coli TOP10
Assay: shrunken log2 fold change of peptide-encoding DNA abundance (4.5 h post-induction vs induction); higher = less antimicrobial activity (less host growth inhibition)
Settings: time post-induction: 4.5 h; library: site-saturation at positions 5, 18, 19, 20
Param threshold (-0.2) applies to shrunken log2 fold change; output t when value >= threshold, f when value < threshold.

Example cases with answers are listed next.
RRIRCRPPRLPRPRPRPQRVPRP :: t
RRIRYRPPRLPRPRPRPKWIPRP :: f
RRIRYRPPRLPRPRPRPANLPRP :: f
RRIRHRPPRLPRPRPRPCLLPRP :: f
RRIRVRPPRLPRPRPRPYTEPRP :: f

Query: Can "RRIRSRPPRLPRPRPRPGQQPRP" be said to have shrunken log2 fold change at or above -0.2?
Result: t

Query: Same lookup for "RRIRERPPRLPRPRPRPPEGPRP" , please.
Result: t

Query: Same lookup for "RRIRDRPPRLPRPRPRPRNDPRP" , please.
Result: f

Query: Same lookup for "RRIRARPPRLPRPRPRPAPFPRP" , please.
Result: t

Query: Same lookup for "RRIRWRPPRLPRPRPRPRIKPRP" , please.
Result: t

Query: Same lookup for "RRIRSRPPRLPRPRPRPPESPRP" , please.
Result: t

Query: Same lookup for "RRIRTRPPRLPRPRPRPEEKPRP" , please.
Result: t

Query: Same lookup for "RRIRNRPPRLPRPRPRPWFAPRP" , please.
Result: t

----------
System: Escherichia coli TOP10
Test: shrunken log2 fold change of peptide-encoding DNA abundance (4.5 h post-induction vs induction); higher = less antimicrobial activity (less host growth inhibition)
Details: time post-induction: 4.5 h; library: site-saturation at positions 5, 18, 19, 20
assay endpoint: shrunken log2 fold change
Answers are plain numbers.

RRIRCRPPRLPRPRPRPTTDPRP :: -0.0121
RRIRQRPPRLPRPRPRPRRSPRP :: -0.0497

Fill in shrunken log2 fold change for each of the 6 sequences listed.
1. RRIRHRPPRLPRPRPRPGEQPRP
2. RRIRSRPPRLPRPRPRPDTQPRP
3. RRIRQRPPRLPRPRPRPIRGPRP
4. RRIRTRPPRLPRPRPRPMPTPRP
5. RRIRERPPRLPRPRPRPKQVPRP
6. RRIRSRPPRLPRPRPRPTRLPRP

Result:
0.0974
-0.00981
-0.0547
0.0982
-0.131
0.699

----------
System: Escherichia coli TOP10
Test: shrunken log2 fold change of peptide-encoding DNA abundance (4.5 h post-induction vs induction); higher = less antimicrobial activity (less host growth inhibition)
Conditions: time post-induction: 4.5 h; library: site-saturation at positions 5, 18, 19, 20
For each record, write down the corresponding shrunken log2 fold change.
Answers are plain numbers.

RRIRPRPPRLPRPRPRPGNFPRP :: -0.25

Fill in shrunken log2 fold change for each of the 4 sequences listed.
1. RRIRNRPPRLPRPRPRPARHPRP
2. RRIRRRPPRLPRPRPRPEHTPRP
3. RRIRLRPPRLPRPRPRPYELPRP
4. RRIRGRPPRLPRPRPRPLTHPRP

Result:
0.0771
-0.0248
0.00404
0.168

----------
Test system: Escherichia coli TOP10
Experiment: shrunken log2 fold change of peptide-encoding DNA abundance (4.5 h post-induction vs induction); higher = less antimicrobial activity (less host growth inhibition)
Details: time post-induction: 4.5 h; library: site-saturation at positions 5, 18, 19, 20
assay endpoint: shrunken log2 fold change
Numbers only.

Previously resolved entries follow.
RRIRQRPPRLPRPRPRPKQYPRP :: -0.359
RRIRGRPPRLPRPRPRPNRSPRP :: -0.0578
RRIRVRPPRLPRPRPRPCIVPRP :: -0.0169
RRIRLRPPRLPRPRPRPCIRPRP :: -0.265
RRIRDRPPRLPRPRPRPFMRPRP :: 0.05

Fill in shrunken log2 fold change for each of the 3 sequences listed.
1. RRIRVRPPRLPRPRPRPHPQPRP
2. RRIRERPPRLPRPRPRPYAGPRP
3. RRIRRRPPRLPRPRPRPEFGPRP

Result:
1. -0.0987
2. -0.000921
3. 0.376

----------
For each record, write down the corresponding shrunken log2 fold change.
Tested on: Escherichia coli TOP10;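 also: peptides expressed intracellularly from a pBAD plasmid library in pooled LB shake-flask culture, induced with 0.3% L-arabinose, DNA abundance read by NGS, three biological replicates, DESeq2 with apeglm shrinkage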
Test: shrunken log2 fold change of peptide-encoding DNA abundance (4.5 h post-induction vs induction); higher = less antimicrobial activity (less host growth inhibition)
Settings: time post-induction: 4.5 h; library: site-saturation at positions 5, 18, 19, 20
Give bare numbers.

Previously resolved entries follow.
RRIRKRPPRLPRPRPRPDSWPRP :: 0.0425
RRIRFRPPRLPRPRPRPAENPRP :: -0.134
RRIRHRPPRLPRPRPRPSFGPRP :: -0.561
RRIRRRPPRLPRPRPRPTDDPRP :: 0.741
RRIRWRPPRLPRPRPRPQWCPRP :: -0.0974

Fill in shrunken log2 fold change for each of the 8 sequences listed.
1. RRIRFRPPRLPRPRPRPWIEPRP
2. RRIRTRPPRLPRPRPRPQDAPRP
3. RRIRIRPPRLPRPRPRPRLYPRP
4. RRIRVRPPRLPRPRPRPINMPRP
5. RRIRIRPPRLPRPRPRPEPIPRP
6. RRIRQRPPRLPRPRPRPHVVPRP
7. RRIRIRPPRLPRPRPRPCWLPRP
8. RRIRWRPPRLPRPRPRPPEDPRP

Result:
-0.224
-0.0107
0.0739
-0.602
0.185
-0.086
-0.196
0.235
